The following compounds are shown together with reported pIC50 values.
Test System: Human Constitutive (Hu C-20S) β5 Active Subunit (Homo sapiens)
Measurement Notes: IC50 determination, human constitutive 20S proteasome β5c (suc-LLVY-AMC hydrolysis)
Assay type: biochemical
Test Conditions: Table 3; IC50 against human constitutive β5 active subunit; read-out: Hu-C20S β5
pIC50: −log10 of the molar value.
Property: pIC50

• Cc1cc(C(=O)N[C@@H](CC(=O)N2CCC[C@@H]2c2ccccc2)C(=O)N[C@@H](C)c2ncc(Cc3ccccc3)[nH]2)no1 = 5.13
• CC[C@H]1CCCCN1C(=O)C[C@H](Nc1nc2ccccc2s1)C(=O)N[C@@H](C)c1nc2c(F)cccc2[nH]1 = 5.92
